Target: human GHS-R1a (Homo sapiens, UniProt Q92847)
Construct: expressed in transfected cells
Sequence (Q92847 whole entry): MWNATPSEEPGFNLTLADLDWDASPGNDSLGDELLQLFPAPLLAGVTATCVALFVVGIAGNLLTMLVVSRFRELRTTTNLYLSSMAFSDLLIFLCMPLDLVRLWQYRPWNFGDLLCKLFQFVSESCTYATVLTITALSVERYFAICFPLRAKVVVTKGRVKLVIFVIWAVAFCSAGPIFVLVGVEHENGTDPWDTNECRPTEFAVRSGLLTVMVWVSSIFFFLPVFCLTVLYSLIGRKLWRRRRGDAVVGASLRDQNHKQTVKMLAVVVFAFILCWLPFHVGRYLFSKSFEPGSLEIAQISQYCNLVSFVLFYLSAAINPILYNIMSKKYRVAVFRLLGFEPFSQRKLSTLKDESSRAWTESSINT
Experiment: Agonistic activity by use of a cell line stably expressing human GHS-R1a (intracellular calcium increase)
Assay type: cell-based
Conditions: hGHS-R1a/CHO cells, percent increase in intracellular calcium vs 100 nM ghrelin; read-out: GHS-R agonistic activity (EC50: nM)
Structures can show the parent of a compound that is named as a salt.
Define the label as true when EC50 is strictly less than 0.7 nM and as false in all remaining cases.

Check out these entries, answers already filled in.
MOLECULE	LABEL_VALUE
CCN(CC)c1cccc2c1N(Cc1ccccn1)C(=O)C(NC(=O)[C@@H](CC(C)C)NC(=O)[C@H](N)Cc1ccc(O)cc1)C2 (stereo partly drawn) [Example 39, hydrochloride]	false
CC(C)n1cc(C[C@@H](NC(=O)C(C)(C)N)C(=O)NC2Cc3cccc(N4CCCC4=O)c3N(Cc3ccsc3)C2=O)c2ccccc21 (stereo partly drawn) [Example 34f, hydrochloride]	false

Input line: Does the reported EC50 of the following molecule sit strictly below 0.7 nM? CC(C)C[C@@H](NC(=O)C(C)(C)N)C(=O)NC1Cc2cccc(N3CCCC3=O)c2N(Cc2ccsc2)C1=O (stereo partly drawn) [Example 34l]
Output line: true

Input line: Do the same for CCCn1cc(C[C@@H](NC(=O)C(C)(C)N)C(=O)NC2Cc3cccc(N4CCCC4=O)c3N(Cc3ccsc3)C2=O)c2ccccc21 (stereo partly drawn) [Example 34e, hydrochloride] please
Output line: true

Input line: Do the same for CC(C)C[C@@H](NC(=O)[C@@H](C)N)C(=O)NC1Cc2cccc(N3CCCC3=O)c2N(Cc2ccsc2)C1=O (stereo partly drawn) [Example 34g, hydrochloride] please
Output line: false

Input line: Do the same for CC(C)(N)C(=O)N[C@H](Cc1c[nH]c2ccccc12)C(=O)NC1Cc2cccc(N3CCCC3=O)c2N(Cc2ccsc2)C1=O (stereo partly drawn) [Example 25l] please
Output line: true

Input line: Do the same for CC(C)C[C@@H](NC(=O)C(C)(C)N)C(=O)NC1Cc2cccc(N3CCCC3=O)c2N(Cc2ccsc2)C1=O (stereo partly drawn) [Example 34k] please
Output line: true

Input line: Do the same for CC[C@@](C)(N)C(=O)N[C@H](CC(C)C)C(=O)NC1Cc2cccc(N3CCCC3=O)c2N(Cc2ccsc2)C1=O (stereo partly drawn) [Example 34h, hydrochloride] please
Output line: false

Input line: Do the same for CC(C)C[C@@H](NC(=O)C(C)(C)N)C(=O)NC1Cc2cccc(N3CCCCC3=O)c2N(Cc2ccccc2)C1=O (stereo partly drawn) [Example 36, hydrochloride] please
Output line: false
